Target: pepsin (Sus scrofa)
Sequence (P00791 60-385): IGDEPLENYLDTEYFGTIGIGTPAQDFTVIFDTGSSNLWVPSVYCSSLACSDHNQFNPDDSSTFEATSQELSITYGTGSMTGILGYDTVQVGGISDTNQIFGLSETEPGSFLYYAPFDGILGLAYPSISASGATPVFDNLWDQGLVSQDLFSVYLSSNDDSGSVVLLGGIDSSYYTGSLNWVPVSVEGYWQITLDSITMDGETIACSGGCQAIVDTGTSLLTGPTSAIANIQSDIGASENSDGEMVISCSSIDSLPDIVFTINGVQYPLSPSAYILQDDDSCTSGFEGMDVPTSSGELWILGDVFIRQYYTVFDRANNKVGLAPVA
Assay: in vitro
Settings: simulated gastric fluid, pH 1.2
Starred links: 1 amine or outer side, 2 acyl side, 3 side chain; linkers in the order of their positions; H or OH if unused. Non-standard residues stand in square brackets, D forms with d. Residues, ends and D or L forms follow the SMILES beside them. X6 = O=C([C@H](Cc1ccc(O)cc1)NC(=S)[C@H]1CCCN1[*:1])[*:2]; X2 = CC(C)C[C@H](NC(=S)[C@@H](CC(C)C)N[*:1])C(=O)[*:2]
Here, each record is paired with measured remaining at 20 min data.
Report only the number, with the unit % understood.

Worked cases, remaining at 20 min given:
{"columns": ["MOLECULE", "remaining at 20 min [%]"],
 "data": [
  ["CC(C)C[C@@H]1NC(=O)[C@H](Cc2ccc(O)cc2)NC(=O)[C@H]2CCCN2C(=O)[C@H](CC(C)C)NC(=O)[C@H](CC(C)C)NC(=S)[C@@H](CC(C)C)NC1=O [10a] (cyclo(L[dP]YL[X2]))", 63],
  ["CC(C)C[C@@H]1NC(=O)[C@H](Cc2ccc(O)cc2)NC(=S)[C@H]2CCCN2C(=O)[C@H](CC(C)C)NC(=O)[C@H](CC(C)C)NC(=O)[C@@H](CC(C)C)NC1=O [10d] (cyclo(LL[X6]L[dL]))", 56]
]}

Next up:
[in] Reported remaining at 20 min for CC(C)C[C@@H]1NC(=O)[C@H](Cc2ccc(O)cc2)NC(=O)[C@H]2CCCN2C(=O)[C@H](CC(C)C)NC(=O)[C@H](CC(C)C)NC(=O)[C@@H](CC(C)C)NC1=O [compound 10, cyclo(-D-Leu^1-Leu-Leu-D-Pro-Tyr-Leu^6-)] (cyclo(LL[dP]YL[dL])) : what is it?
[out] 40

###

Experiment: PAMPA passive permeability;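 further: passive permeability across an artificial membrane in 96-well pre-coated PAMPA plates, which lack transporters and efflux systems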
Type: in vitro ADME
Conditions: Pe
Starred links: 1 amine or outer side, 2 acyl side, 3 side chain; linkers in the order of their positions; H or OH if unused. Non-standard residues stand in square brackets, D forms with d. Residues, ends and D or L forms follow the SMILES beside them. X10 = NCCCC[C@H](NC(=S)[C@@H](Cc1c[nH]c2ccccc12)N[*:1])C(=O)[*:2]; X12 = C[C@@H](O)[C@H](N[*:1])C(=S)N[C@@H](Cc1ccccc1)C(=O)[*:2]; X7 = C[C@@H](O)[C@H](NC(=S)[C@H](CCCCN)N[*:1])C(=O)[*:2]; X8 = O=C([C@H](Cc1ccccc1)NC(=S)[C@@H]1CCCN1[*:1])[*:2]; X9 = O=C([C@@H]1CCCN1C(=S)[C@H](Cc1ccccc1)N[*:1])[*:2]
Parameter threshold = 2 ×10⁻⁶ cm/s. Response is criterion met when Papp meets or exceeds it, else criterion not met.

{"columns": ["COMPOUND", "CLASS ASSIGNMENT"],
 "data": [
  ["C[C@@H](O)[C@@H]1NC(=S)[C@H](CCCCN)NC(=O)[C@@H](Cc2c[nH]c3ccccc23)NC(=O)[C@H](Cc2ccccc2)NC(=O)[C@@H]2CCCN2C(=O)[C@H](Cc2ccccc2)NC1=O [13b] (cyclo(FPF[dW][X7]))", "criterion met"],
  ["C[C@@H](O)[C@@H]1NC(=O)[C@H](CCCCN)NC(=O)[C@@H](Cc2c[nH]c3ccccc23)NC(=O)[C@H](Cc2ccccc2)NC(=O)[C@@H]2CCCN2C(=S)[C@H](Cc2ccccc2)NC1=O [13d] (cyclo(F[dW]KT[X9]))", "criterion met"],
  ["C[C@@H](O)[C@@H]1NC(=O)[C@H](CCCCN)NC(=S)[C@@H](Cc2c[nH]c3ccccc23)NC(=O)[C@H](Cc2ccccc2)NC(=O)[C@@H]2CCCN2C(=O)[C@H](Cc2ccccc2)NC1=O [13a] (cyclo(FPF[X10]T))", "criterion met"],
  ["C[C@@H](O)[C@@H]1NC(=O)[C@H](CCCCN)NC(=O)[C@@H](Cc2c[nH]c3ccccc23)NC(=O)[C@H](Cc2ccccc2)NC(=O)[C@@H]2CCCN2C(=O)[C@H](Cc2ccccc2)NC1=S [13c] (cyclo(F[dW]K[X12]P))", "criterion not met"]
]}

[in] Test whether the compound C[C@@H](O)[C@@H]1NC(=O)[C@H](CCCCN)NC(=O)[C@@H](Cc2c[nH]c3ccccc23)NC(=O)[C@H](Cc2ccccc2)NC(=S)[C@@H]2CCCN2C(=O)[C@H](Cc2ccccc2)NC1=O [13e] (cyclo(F[X8][dW]KT)) records Papp of 2 ×10⁻⁶ cm/s or higher.
[out] criterion not met
